test system: MS2 coat protein; experiment: apparent KD of MS2 coat protein; designed switch direction (-1 OFF switch, 1 ON switch): -1; higher = weaker reporter binding; conditions: input ligand: none
Quick rule for you: apparent KD of MS2 coat protein at 30 nM or higher means true (1), lower means false (0).

A selection of reference data follows.
sequence-content | study-system | discrete-label
AAAAGAAAACGAGGAUAUGCGCGUAACGUACAUCCUCUAGACAUGAGGAUCACCCAUGUAGCGCAGCAGAAGGCGUAAAAGAAA [Orises] (Eterna round: R96, puzzle: Exclusion NG 2) | MS2 coat protein | true (1)
CGUAAAAGGAAGGAUAUGCUAGACGAAAGUCUAGCAGAAGGUCCUACAUGAGGAUCACCCAUGUGUCCUAUACG [Mat - Exclusion 6 - Eli Mod - D12] (Eterna round: R97, puzzle: Exclusion 6) | MS2 coat protein | true (1)
ACAUGAGGAUCACCCAUGUCCGGCUGGUCCGUCUCGGCUGUCGAGGAUAUGGCUCGGUGUCCGCGCUAGAAGGUGGGAGCCGGU [Aenatbe mod 74] (Eterna round: R96, puzzle: Exclusion NG 3) | MS2 coat protein | true (1)
GAAAAUGUGGAGGAUAUCGACUUCGAAAGAAGUCGAGAAGGCCACACAUGAGGAUCACCCAUGUGUUCCUUCAA [Omei Ex6 H2] (Eterna round: R97, puzzle: Exclusion 6) | MS2 coat protein | true (1)
AAAAGUUUUCAGGAUAUGUGCGAUUAAUAUCGUGCAGAAGGGAGGACAUGAGGAUCACCCAUGUUGAAGACAAC [Omei Ex6 A18] (Eterna round: R97, puzzle: Exclusion 6) | MS2 coat protein | true (1)

[ask] Form field: apparent KD of MS2 coat protein at least 30 nM? Entry: CUCAUUUGUCAGGAUAUCGUGAGGCUAAUUAUACGAGAAGGGACGACAUGAGGAUCACCCAUGUGGUCUUUGAG [JR_Ex6_Sub082] (Eterna round: R97, puzzle: Exclusion 6)
[reply] true (1)

[ask] Form field: apparent KD of MS2 coat protein at least 30 nM? Entry: ACGGUUCUCCUCAGCUACAUGAGGAUCACCCAUGUGACUGAGCAGGAUAUACAUAAGUGCGAAAAGUAGAAGGGCUCGGCGCAC [Xeora] (Eterna round: R96, puzzle: Exclusion NG 3)
[reply] false (0)

[ask] Form field: apparent KD of MS2 coat protein at least 30 nM? Entry: GUGGGCUUUUAGGUUCUUGACAUGAGGAUCACCCAUGUGCUUGUCUUGCUGGCUGGCGGGUCGUCGGUCGGGCUUGU (Eterna round: R97, puzzle: Sensor, turn-off variant 1)
[reply] true (1)

* * *

system: K4 kissing-loop RNA reporter; assay: apparent KD of K4 kissing-loop reporter; higher = weaker reporter binding; conditions: Eterna round: R107; input ligand: none
measure: apparent KD of K4 kissing-loop reporter (nM)
The response must be a number in nM with no trailing unit.

The following sequences have reported results that may help.
sequence-content | display-unit | apparent KD of K4 kissing-loop reporter
GGGAGUUAUUACGGCAGGGUCGAUACGGAUACCAGUAGGCGGCUCUACCCUUGGCAGCCGUAACAUGGUAGUGAUGUUAUCAGUC [theeternabot_exclusion_KL_Theo_A_24] | nM | 518
AAAUUCUUUUUUUUAUAUAACGAUUCAGAAGGAGCGAGGUAGAACUCAGGUAGGUCGCUGAAUAUAAGACUAGUGAUGUUAGUAA [#01 K4 Arginine A Same State] | nM | 224
UCACGUGCCAGUGAUGUUGGCGUACGUGAUACCAGACGAAUAAAAGUCCCUUGGCAGCACAAAUAUGCCAAGUUAGAUGUAUGAU [Exclusion Theophylline A GF 2] | nM | 121

Turning now to a further sequence:
[ask] # lookup: apparent KD of K4 kissing-loop reporter of UCGAACGAUGGAAGGAGCGCUCGUCAGUCCUGCGAGUGAUGUUCGUGGGUAAAUAGUCGCGAGCAGGUAGGUCGCCAUCUUGAGC [Indiermaar]
[reply] 131

* * *

Recorded apparent KD of K4 kissing-loop reporter values for a group of sequences are listed next.
tested on: K4 kissing-loop RNA reporter; assay: apparent KD of K4 kissing-loop reporter; higher = weaker reporter binding; details: Eterna round: R107; input ligand: none
Number first, unit second: that is the form wanted.

The following sequences have reported results that may help.
sequence-content | apparent KD of K4 kissing-loop reporter
UUUAUAAAGUCGGCCGCCACUGGAUUUAUAUUUGUUUAGUCUGGAUCAAAGUGAUGUUUUGAGUCCAGGACCGGGACAUUUGUUA [whbob_Ex_Tryp_B_w36] | 93.5 nM
AGGCACGAGCAAGGAUAUCGAGUAGAGUGAUGUUCUGCCUGGGUUGGCUCGGAAGAGCCUUCUCAGCGAGAAGGUGCUCGUGCCU [#2 Same State - FMN A Attempt #19 (HarryS)] | 747 nM
AAGCCAGUGAUGUUGGCAAAAUAAACUGAAGGAGCGCGUGAAAACGCAGGUAGGUCGCAGAACCUUGCCAACUAACACGAAAGUG [Ex Arginine A K4 19] | 305 nM
UUUGUAUAGGGAAGGAGCGUGAAUGAUAAUGAAUAUAGUGAUGUUAUAUAUAAGAAAGAAUCACAGGUAGGUCGCCCGGAUGAGG [SSArgB.K] | 565 nM
GUAGACGUACCUUCAGUGAUGUUGAAGGAUACCAGAUGUUAUCACAUCCCUUGGCAGCCUUGGGAUAACAGUGAGUCGGAAUAUG [Essoaran] | 184 nM

Turning now to a further sequence:
[ask] # get_value(readout= apparent KD of K4 kissing-loop reporter, system= K4 kissing-loop RNA reporter) for CUUAGGAGUGGUGUUGAUUAGGGAGCGGAAGGAGCGCCAAUGAUGGCAGGUAGGUCGCCGGAAUGUAGUGAUGUUGCAUAGAGGG [ExArgA.S];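 further: bound reporter read as fluorescence of individual clusters on recovered sequencing chips by microscopy, with normalized cluster intensities fitted with a binding model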
[reply] 415 nM

* * *

Recorded apparent KD of MS2 coat protein values for a group of sequences are listed next.
tested on: MS2 coat protein; test: apparent KD of MS2 coat protein, switch OFF state (with FMN for OFF switches, without FMN for ON switches); designed switch direction (-1 OFF switch, 1 ON switch): -1; higher = weaker reporter binding; details: FMN input: 0 or 200 uM; Eterna round: R93 (includes R88 designs)
The response must be a number in nM with no trailing unit.

The following sequences have reported results that may help.
sequence-content | apparent KD of MS2 coat protein (nM)
AAAAAACAUGAGGAUCACCCAUGUCAGGAUAUGCUCAGCAAUAUUAAAAUAAAGAACGGUAGAAGGGACAGAAA [Bilbo Confounded 23 - Jieux - Exclusion 1] | 34.7
AAAAAGUCAGGAUAUGUACGAAAAAAUAAAAAAAUAAAAGUACAGAAGGGACAUGAGGAUCACCCAUGUCAGGG [EX4 393: Minimal 5] | 118
CUCUAGUUAGGAUAUGCAAGAAAAGAAGAGAAAGAAAAGAAGCAGAAGGAACAUGAGGAUCACCCAUGUAAGAA [EteRNA is fun!] | 20.4
AAUAACUCAGGAUAUACUAAAGAAAUGAAAAGAAAUAAAGAACAUGAGGAUCACCCAUGUAGAAGGGAGAAUAA [Wazad] | 55.1
AAGAAGUCAGGAUAUGCUGCUCGUCACGAAAGUGAUGAGUAGCAGAAGGGACAUGAGGAUCACCCAUGUAAAGA [Exclusion 4.1 (Exclusion4-cac2 - the real original)] | 66.6

[ask] # get_value(readout= apparent KD of MS2 coat protein, system= MS2 coat protein) for AAGAAGGCAGGAUAUACUAAAGAAAUGAAAAGAAAUAAAGAACAUGAGGAUCACCCAUGUAGAAGGGCCAAGAA [Khakherewre]
[reply] 24.1

[ask] # get_value(readout= apparent KD of MS2 coat protein, system= MS2 coat protein) for CUCGUGUUAGGAUAUGGAUAGCCGUUUGACGAGCGAGGGCACUAGAAGGAACAUGAGGAUCACCCAUGUAAAAA [Velema]
[reply] 28.1

[ask] # get_value(readout= apparent KD of MS2 coat protein, system= MS2 coat protein) for AAAAAACAUGAGGAUCACCCAUGUAAGGAUAUGCAAAAGAAAAGAAAAGAAAGAAGAAGCAGAAGGUACAAGAA [Userkaf]
[reply] 31.2

[ask] # get_value(readout= apparent KD of MS2 coat protein, system= MS2 coat protein) for AAGGUUCGAGGAUAUACAUAGAUACAGAUACAUGUAGACGUACAUGAGGAUCACCCAUGUAGAAGGCGAAUAUA [AJ 25]
[reply] 142

[ask] # get_value(readout= apparent KD of MS2 coat protein, system= MS2 coat protein) for ACCAAUGCAGGAUAUACAUGAGGAUCACCCAUGUAUAACCUACAUAGAUGAUAAAAAUGUAGAAGGGCAUUGGA [EX3 232: Super Stable 32]
[reply] 20.3

[ask] # get_value(readout= apparent KD of MS2 coat protein, system= MS2 coat protein) for CCCAUGUCAGGAUAUCAGUAGUAAAAAAAAAAAAUUACUACUGAGAAGGGACAUGAGGAUCACCCAUGUCACUU [EX4 320: Super Stable 20]
[reply] 53.2

[ask] # get_value(readout= apparent KD of MS2 coat protein, system= MS2 coat protein) for AAGGUAUAAGGAUAUACAUAGAUACAGACACAUGUUCAAGUACAUGAGGAUCACCCAUGUAGAAGGUAUAUAUA [AJ 13]
[reply] 26.7

[ask] # get_value(readout= apparent KD of MS2 coat protein, system= MS2 coat protein) for CUUAUGUGAGGAUAUGGUGUUGGCCACAGGGAAAAGAUCCUCCAGAAGGCACAUGAGGAUCACCCAUGUAGUGA [Jolly's Folly 29 - Jieux - Exclusion 4]
[reply] 160
